Item-by-item account of growth
- Test system: OVCAR-5 ovarian
- Test method notes: NCI-60 one-dose screen, 48 h (100 = growth as untreated, 0 = no growth, -100 = all killed)
- Condition notes: 10 µM unless noted
- Protocol: Growth inhibition of the OVCAR-5 human tumor cell line is measured as a screen for anti-cancer activity. Cells are grown in 96 well plates and exposed to the test compound for 48 hours. Compounds are tested at a single concentration, which is 10^-5 M for most compounds. The reported endpoint is percent growth (GI% or GIPRCNT), where numbers from 0 - 100% represent growth inhibition, and numbers from -100% - 0 represent cell death. For example, a value of 40 represents 60% growth inhibition. […]
About 83,000 compounds went through this panel and 20% of them were active in at least one assay; those are over-represented in the sample as a whole. Calls of active or inactive are those of the source. How the source made its calls: active means growth percent below 10; inactive means the rest.

Compound: COc1cc(/C=C/c2cc(/C=C/c3ccc(O)c(OC)c3)n(-c3ccccc3)c(=O)n2)ccc1O
growth: 113% (inactive)
//
Compound: COc1cc(-c2nc(-c3ccccc3)c(-c3ccccc3)[nH]2)cc(OC)c1O
growth: 75.3% (inactive)
//
Compound: CCCCN1CCCCn2c1nc1c2c(=O)n(C)c(=O)n1C
growth: 117% (inactive)
//
Compound: N=C(N)c1ccc(-c2ccc(-c3cc(F)cc(F)c3)o2)nc1
growth: 88.9% (inactive)
//
Compound: CCc1nnc(NC(=O)c2ccoc2COc2ccccc2)s1
growth: 84.7% (inactive)
//
Compound: O=C1c2ccccc2NC(c2cn(-c3ccccc3)nc2-c2cccnc2)N1Cc1ccccc1 (configuration not stated)
growth: 91.5% (inactive)
//
Compound: COc1cnc2c(c1)C(=O)c1c-2n(CCCNC(C)C)c(=O)c2cc([N+](=O)[O-])ccc12
growth: -46.6% (active)
//
Compound: COc1cccc2c1C(=O)c1c(O)c3c(c(O)c1C2=O)C[C@@](O)(C(=O)CO)C[C@@H]3OC1C[C@H](N)[C@H](O)[C@H](C)O1 (some centres not stated)
growth: 9.77% (active)
//
Compound: Cc1cc2nc3c4cc([N+](=O)[O-])cc([N+](=O)[O-])c4n(CCN(C)C)c3nc2cc1C
growth: 87.8% (inactive)
//
Compound: C=COCCCCCCCCCCCCCCCCCC
growth: 106% (inactive)
//
Compound: COc1cccc(-c2nn(-c3ccccc3)cc2-c2ccnc(NCCCNS(=O)(=O)c3ccc(C(F)(F)F)cc3)c2)c1
growth: 50.1% (inactive)
//
Compound: Cn1cc(-c2csc(-c3c[nH]c4ccc(F)cc34)n2)c2cccnc21
growth: 78.4% (inactive)
//
Compound: N#CC1=C(N)Oc2c(c(N)nn2-c2ccccc2)C1c1ccc(Cl)cc1 (configuration not stated)
growth: 102% (inactive)
//
Compound: C=C(C)[C@@H]1CC[C@]2(C)[C@H](CC=C3[C@@H]4CC(C)(C)CC[C@]4(C=O)CC[C@]32C)[C@@]1(C)CCCN
growth: 91.8% (inactive)
//
Compound: COc1ccc(-c2nc3ccccn3c2-c2nc3ccc(Cl)cc3[nH]2)cc1
growth: 102% (inactive)
//
Compound: C=C(C)[C@@H]1CC[C@]2(C(=O)OC)CC[C@]3(C)[C@H](CC[C@@H]4[C@@](C)(CC/C(N)=N/O)[C@H](C(=C)C)CC[C@]43C)[C@@H]12
growth: 105% (inactive)
//
Compound: CCN(CC)C(=O)CCCCCn1c2ccccc2c2c3c(c4c5ccccc5[nH]c4c21)C(=O)N(O)C3=O
growth: 104% (inactive)
//
Compound: C[C@H]1OC(=O)/C=C/[C@@H](O)[C@@H](O)CCCCCCCC[C@@H]1O
growth: 95.6% (inactive)
//
Compound: COC(=O)[C@]12CC[C@@H](C)[C@H](C)[C@@H]1C1=CC[C@@H]3[C@@]4(C)C[C@@H](O)OC[C@](C)(C=O)C4C(=O)C[C@@]3(C)[C@]1(C)CC2 (some centres not stated)
growth: -10.5% (active)
//
Compound: COc1cccc(-c2nn(-c3ccccc3)cc2-c2ccnc(NCCCNS(=O)(=O)c3ccccc3)c2)c1
growth: 67.2% (inactive)
//
Compound: NC(Cc1ccc(O)cc1)C(=O)N/N=C/c1ccccc1O (configuration not stated)
growth: 110% (inactive)
//
Compound: Nc1ccc(Br)cn1
growth: 93% (inactive)
//
Compound: NC1=C(C/C(N)=N\O)C(c2ccccc2Cl)c2c(ccc3ccccc23)O1 (configuration not stated)
growth: 100% (inactive)
//
Compound: C=C(C)[C@@H]1CC[C@]2(CN)CC[C@]3(C)[C@H](CC[C@@H]4[C@@]5(C)CCC(=O)NC(C)(C)[C@@H]5CC[C@]43C)[C@@H]12
growth: 97.8% (inactive)
//
Compound: O=C1CN(c2ccccc2)C(=O)C1C(=O)Nc1ccc(Cl)c(Cl)c1 (configuration not stated)
growth: 36.3% [100 µM] (inactive)
//
Compound: O=C(O)c1cccc2c1-c1ccc(Cl)cc1C2
growth: 115% (inactive)
//
Compound: C[C@]12CC[C@@H]3c4ccc(O)cc4CC[C@H]3[C@@H]1C[C@H](O)[C@@H]2O
growth: 85.5% (inactive)
//
Compound: N#C/C(=C\c1ccc(-c2cccc(C(F)(F)F)c2)o1)c1nc(-c2ccco2)cs1
growth: 60.2% (inactive)
//
Compound: O=P(O)(c1ccccc1)c1ccccc1I
growth: 103% (inactive)
//
Compound: Cc1cc(N(CCNc2ccnc3cc(Cl)ccc23)Cc2ccco2)nc(Cl)n1
growth: -37.5% (active)
//
Compound: Cc1oc(-c2ccccc2Cl)cc1C(=O)Nc1ccc(S(N)(=O)=O)cc1
growth: 102% (inactive)
//
Compound: CN(C)c1cccc2[nH]c(-c3[nH]ncc3Nc3ccnc(N)n3)nc12
growth: -1.19% (active)
//
Compound: CC(C)(C)n1cc(-c2ccnc(NCCCNS(=O)(=O)c3ccc(Cl)cc3)c2)c(-c2cccc(F)c2)n1
growth: 77.2% (inactive)
//
Compound: CCOC(=O)N1CCN(CCCCOc2ccc(C(C)(C)CC)cc2)CC1
growth: 106% (inactive)
//
Compound: Cc1ccc(/C=C(\C#N)c2cc3ccccc3n2C)cc1
growth: 38.7% (inactive)
//
Compound: Clc1ccc2[nH]cc(-c3nc(-c4c[nH]c5ncccc45)cs3)c2c1
growth: 80.6% (inactive)
//
Compound: COC(=O)[C@]12CC[C@@H](C)[C@H](C)[C@@H]1C1=CC[C@@H]3[C@@]4(C)CC(=O)[C@H](OC(=O)c5ccco5)[C@@]5(C)COC(=C45)C[C@@]3(C)[C@]1(C)CC2
growth: 69.2% (inactive)

* * *

- Test system: ACHN renal
- Test method notes: NCI-60 one-dose screen, 48 h
- Condition notes: 10 µM unless noted
About 83,000 compounds went through this panel and 20% of them were active in at least one assay; those are over-represented in the sample as a whole. Activity calls are given as the source filed them. The calls were made as follows: active = growth percent below 10; inactive = the rest.
Possible outcomes: label 1 = active, label 0 = inactive

Molecule: COc1ccc2c(c1)c1nc3cc(C)c(C)cc3nc1n2CCN(C)C
Class label: label 1
//
Molecule: Cc1cccc2c1NC(=O)[C@@]21[C@H](C(=O)c2ccccc2)[C@]2(C(=O)Nc3ccccc32)[C@H]2CCCN21
Class label: label 1
//
Molecule: COc1ccc(/C(=C\c2ccc3c(c2)OCO3)C(=O)Nc2nc3ccccc3s2)cc1OC
Class label: label 0
//
Molecule: COc1ccc2c(c1)C/C(=C\c1cc(-c3ccc4c(c3)OCO4)n[nH]1)C2=O
Class label: label 0
//
Molecule: CN1CCN(CCOc2ccc(-c3cnc4c(-c5cccc(F)c5)cnn4c3)cc2)CC1
Class label: label 0
//
Molecule: C=C(C)[C@@H]1CC[C@]2(/C=N/Nc3ccncc3)CC[C@]3(C)[C@H](CC[C@@H]4[C@@]5(C)CCCNC(C)(C)[C@@H]5CC[C@]43C)[C@@H]12
Class label: label 0
//
Molecule: CCNCCCn1c2c(c3ccc([N+](=O)[O-])cc3c1=O)C(=O)c1cc(OC)cnc1-2
Class label: label 1
//
Molecule: O=C(NC(Cc1cn(Cc2ccccc2)cn1)C(=O)O)OCC1c2ccccc2-c2ccccc21 (centres undefined)
Class label: label 0
//
Molecule: O=C1c2ccccc2NC(c2cn(-c3ccccc3)nc2-c2cccs2)N1Cc1ccccc1 (centres undefined)
Class label: label 0
//
Molecule: COc1ccc(-c2nc(SCC(=O)Nc3ccc(C(C)=O)cc3)[nH]c(=O)c2C#N)cc1
Class label: label 0
//
Molecule: C#CCn1c(C)cc(C)c(C#N)c1=O
Class label: label 0
//
Molecule: CCCCC/C(=C\c1ccccc1)C1OC(C)C(C)O1 (centres undefined)
Class label: label 0
//
Molecule: Nc1nc(Br)nc2c1ncn2C1CC(O)C(CO)O1 (centres undefined)
Class label: label 0
//
Molecule: C#CCC(C)(O)/C=C/C1=C(C)CCCC1(C)C (centres undefined)
Class label: label 0
//
Molecule: O=C(NCN1C(=O)c2cccc3cccc(c23)C1=O)N1CCC(Cc2ccccc2)CC1
Class label: label 0
//
Molecule: C=C(C)[C@@H]1CC[C@]2(C(=O)OC)CC[C@]3(C)[C@H](CC[C@@H]4[C@@](C)(CC/C(N)=N/O)[C@H](C(=C)C)CC[C@]43C)[C@@H]12
Class label: label 0
//
Molecule: O=C1c2ccccc2NC(c2cn(-c3ccccc3)nc2-c2cccnc2)N1Cc1ccccc1 (centres undefined)
Class label: label 0
//
Molecule: COc1ccc(C2(Cl)c3ccccc3N(c3ccccc3)c3ccccc32)cc1
Class label: label 1
//
Molecule: O=S(=O)(NCCCNc1cc(-c2cn(-c3ccccc3)nc2-c2cccc(O)c2)ccn1)c1ccc(F)cc1
Class label: label 0

Hey, just so you know, these numbers are from PubChem BioAssay (NCI).
